Measurement record for human GAL3 receptor (Homo sapiens); quantity recorded: Ki.
Answers are plain numbers, in nM.

Dear reader, for each entry below, please note its Ki.
1. Cc1ccc(N(c2ccc(C)cc2)c2cc(N3CCCCC3)nc(N)n2)cc1
2. CN(C)c1cc(N)nc(N(c2ccccc2)c2ccc(Cl)cc2)n1

627
783

---

Target: human GAL1 receptor (Homo sapiens, UniProt P47211)
Sequence (P47211 whole entry): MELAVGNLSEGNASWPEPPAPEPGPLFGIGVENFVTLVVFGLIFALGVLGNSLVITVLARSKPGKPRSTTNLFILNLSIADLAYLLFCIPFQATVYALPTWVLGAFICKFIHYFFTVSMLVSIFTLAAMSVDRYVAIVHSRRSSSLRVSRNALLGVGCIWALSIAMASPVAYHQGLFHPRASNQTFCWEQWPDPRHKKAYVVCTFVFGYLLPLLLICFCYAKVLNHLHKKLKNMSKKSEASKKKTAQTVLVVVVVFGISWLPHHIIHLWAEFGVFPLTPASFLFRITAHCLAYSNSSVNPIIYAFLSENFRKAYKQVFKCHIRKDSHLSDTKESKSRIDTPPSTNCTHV
MEASURED QUANTITY: Ki (µM)
Numbers only, in µM.

Entry `CN(C)c1cc(Nc2ccc3ccccc3c2)nc(N(C)CCc2c[nH]c3ccccc23)n1` ; assay system human GAL1 receptor (Homo sapiens, UniProt P47211); Ki recorded at 3.8
